IC50 reference
Target: C5aR (Homo sapiens (Human))
Sequence (P21730 whole entry): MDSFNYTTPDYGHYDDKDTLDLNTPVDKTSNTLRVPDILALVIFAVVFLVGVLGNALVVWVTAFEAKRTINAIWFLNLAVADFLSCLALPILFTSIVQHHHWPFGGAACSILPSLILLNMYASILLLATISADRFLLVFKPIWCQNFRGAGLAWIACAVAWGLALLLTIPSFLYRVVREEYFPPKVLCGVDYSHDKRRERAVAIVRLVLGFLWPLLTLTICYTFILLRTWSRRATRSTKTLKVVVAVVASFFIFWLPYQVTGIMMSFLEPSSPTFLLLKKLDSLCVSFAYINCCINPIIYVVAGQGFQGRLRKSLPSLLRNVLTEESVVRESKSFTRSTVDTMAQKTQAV
Experiment: Chemotaxis assay using U937 cells (C5aR mediated migration)
Settings: read-out: Mig IC50

1. Cc1cccc(OCC(C)C)c1-n1nc2c(c1-c1ccc(NC(N)=O)cc1)CN(C(=O)CCc1ccccc1)CC2 :: 50 to 500 nM

Req: Hi! What's the reported IC50 for Cc1cccc(C)c1-n1nc2c(c1-c1cc(F)c(NC(N)=O)cc1F)CN(c1ncc(C3CC3)cc1F)CC2 on C5aR (Homo sapiens (Human))?
Resp: ≤ 5 nM

Req: Also, CCc1cccc(CC)c1-n1nc2c(c1-c1cc(F)c(NC(N)=O)cc1F)CN(C(C)c1ccccc1C(F)(F)F)CC2 (stereo not shown) please.
Resp: ≤ 5 nM

Req: Please do the same for CCc1cccc(CC)c1-n1nc2c(c1-c1cc(F)c(NC(N)=O)cc1F)CN(Cc1cccc(C(F)(F)F)c1)C(C)(C)C2 as well.
Resp: ≤ 5 nM
